Would you kindly list self-splicing fitness (ln) for each of these sequences?
- ASSAY PROCEDURE: self-splicing fitness, log relative to wild type (ln ratio); higher = more splicing; Tetrahymena group I intron in knt gene, E. coli kanamycin selection, DiMSum; sequences stand for … in CUCUCU…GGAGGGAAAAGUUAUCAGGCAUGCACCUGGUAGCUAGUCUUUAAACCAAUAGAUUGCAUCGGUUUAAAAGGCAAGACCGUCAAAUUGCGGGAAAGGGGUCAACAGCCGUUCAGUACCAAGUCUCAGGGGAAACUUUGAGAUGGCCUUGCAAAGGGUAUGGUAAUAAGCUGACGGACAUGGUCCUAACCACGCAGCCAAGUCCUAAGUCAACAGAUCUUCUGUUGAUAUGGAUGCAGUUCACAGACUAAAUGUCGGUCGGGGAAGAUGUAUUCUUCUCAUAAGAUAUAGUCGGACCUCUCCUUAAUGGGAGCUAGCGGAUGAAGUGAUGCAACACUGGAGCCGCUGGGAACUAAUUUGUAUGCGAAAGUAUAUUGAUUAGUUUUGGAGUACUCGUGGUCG;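 further: selection with 25 µg/mL kanamycin versus none on LB agar overnight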
- STATED CONDITIONS: 37 °C
The answer should be written as a number, with no unit following it.

QUERY: Returns the measured self-splicing fitness (ln) for the input sequence. Input: CGUUAGCAAUAUUACGAACA
RESULT: 0.0081

QUERY: Returns the measured self-splicing fitness (ln) for the input sequence. Input: AAUUAGCAAUAUUACGUCAA
RESULT: -0.791

QUERY: Returns the measured self-splicing fitness (ln) for the input sequence. Input: GCACAGCAAUAUUACGUUAA
RESULT: -0.544

QUERY: Returns the measured self-splicing fitness (ln) for the input sequence. Input: UAUCAGCAAUAUUACGCGUC
RESULT: -0.926

QUERY: Returns the measured self-splicing fitness (ln) for the input sequence. Input: GUUUAGCAAUAUUACGAAAU
RESULT: -1.85

QUERY: Returns the measured self-splicing fitness (ln) for the input sequence. Input: GUGAAGCAAUAUUACGGCGA
RESULT: 0.297

QUERY: Returns the measured self-splicing fitness (ln) for the input sequence. Input: AGGUAGCAAUAUUACGAAUU
RESULT: -0.996

QUERY: Returns the measured self-splicing fitness (ln) for the input sequence. Input: CGGUAGCAAUAUUACGCGGC
RESULT: -2.79

QUERY: Returns the measured self-splicing fitness (ln) for the input sequence. Input: AUCGAGCAAUAUUACGUUGG
RESULT: -2.37

QUERY: Returns the measured self-splicing fitness (ln) for the input sequence. Input: AUCGAGCAAUAUUACGAAUU
RESULT: -2.1

QUERY: Returns the measured self-splicing fitness (ln) for the input sequence. Input: CCAUAGCAAUAUUACGCGUC
RESULT: -4.21

QUERY: Returns the measured self-splicing fitness (ln) for the input sequence. Input: GUGUAGCAAUAUUACGGAAU
RESULT: -1.64

QUERY: Returns the measured self-splicing fitness (ln) for the input sequence. Input: GAGUAGCAAUAUUACGCUAG
RESULT: -0.481

QUERY: Returns the measured self-splicing fitness (ln) for the input sequence. Input: GACAAGCAAUAUUACGGCUG
RESULT: -0.635

QUERY: Returns the measured self-splicing fitness (ln) for the input sequence. Input: CUGCAGCAAUAUUACGGGGA
RESULT: -2.22

QUERY: Returns the measured self-splicing fitness (ln) for the input sequence. Input: ACAUAGCAAUAUUACGGGCA
RESULT: -1.76
